# Test system: Caenorhabditis elegans (Bristol N2)
# Assay remarks: C. elegans larval development and growth assay
# Conditions: 0.5 µM
Quick reference: EXT: mean difference in nematode size relative to plate controls of the listed items.
Output: the number by itself.

// solved cases for EXT: mean difference in nematode size relative to plate controls follow
[[record]]
molecule = "CC(C)[C@@H]1NC(=O)[C@H](C)OC(=O)[C@@H](C(C)C)NC(=O)[C@@H](C(C)C)OC(=O)[C@H](C(C)C)NC(=O)[C@H](C)OC(=O)[C@@H](C(C)C)NC(=O)[C@@H](C(C)C)OC(=O)[C@H](C(C)C)NC(=O)[C@H](C)OC(=O)[C@@H](C(C)C)NC(=O)[C@@H](C(C)C)OC1=O [Valinomycin]"
reading = 0.09961

[[record]]
molecule = "CCN1C(=CC=Cc2ccc3ccccc3[n+]2CC)C=Cc2ccccc21.[Cl-] [Pinacyanol chloride]"
reading = 1.355

[[record]]
molecule = "Cc1cc(Cc2cc(C)cc(C(C)(C)C)c2O)c(O)c(C(C)(C)C)c1"
reading = 0.1192


// next entry
Nc1ccc2c(c1)C(=O)c1ccccc1C2=O [2-Aminoanthraquinone] has a reported EXT: mean difference in nematode size relative to plate controls of 0.000738
